// reported pKd per item
Target: T1, EsCas13d, nuclease-dead (Eubacterium siraeum, UniProt B0MS50, R295A;H300A;R849A;H854A)
T1 sequence: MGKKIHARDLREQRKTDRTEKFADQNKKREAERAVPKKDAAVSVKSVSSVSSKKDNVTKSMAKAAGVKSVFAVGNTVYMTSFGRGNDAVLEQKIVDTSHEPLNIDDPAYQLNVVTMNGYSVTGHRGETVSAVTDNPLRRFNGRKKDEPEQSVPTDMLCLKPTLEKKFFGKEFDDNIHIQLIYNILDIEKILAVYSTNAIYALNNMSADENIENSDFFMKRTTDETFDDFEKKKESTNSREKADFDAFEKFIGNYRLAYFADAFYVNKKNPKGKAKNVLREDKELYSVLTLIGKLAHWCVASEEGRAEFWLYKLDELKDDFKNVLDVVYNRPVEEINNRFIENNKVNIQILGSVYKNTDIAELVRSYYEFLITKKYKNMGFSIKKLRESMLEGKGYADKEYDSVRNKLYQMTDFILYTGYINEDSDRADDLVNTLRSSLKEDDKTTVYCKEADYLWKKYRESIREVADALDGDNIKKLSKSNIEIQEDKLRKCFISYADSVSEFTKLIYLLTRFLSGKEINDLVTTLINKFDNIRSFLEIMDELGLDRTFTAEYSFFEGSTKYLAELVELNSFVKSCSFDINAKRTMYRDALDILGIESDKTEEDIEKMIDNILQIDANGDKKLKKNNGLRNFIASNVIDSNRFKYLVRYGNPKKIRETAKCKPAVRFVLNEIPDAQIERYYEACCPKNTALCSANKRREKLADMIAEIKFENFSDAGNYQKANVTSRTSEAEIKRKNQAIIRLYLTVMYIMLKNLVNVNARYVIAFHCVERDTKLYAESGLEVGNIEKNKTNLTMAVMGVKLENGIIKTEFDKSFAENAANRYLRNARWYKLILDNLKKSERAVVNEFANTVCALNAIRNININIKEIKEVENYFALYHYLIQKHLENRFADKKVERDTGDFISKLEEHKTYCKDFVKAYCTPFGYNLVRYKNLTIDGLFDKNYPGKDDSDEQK
Experiment: crRNA (strand 1, pre-loaded); Mg2+; 40 mM Tris-HCl pH 7.5, 150 mM NaCl, 6 mM MgCl2, 1 mM DTT, 0.1% Tween-20, 0.2 mg/ml BSA; 25 C; 10 min per concentration, then washed
Details: tags: His6-TwinStrep-SUMO cleaved; N-terminal SNAP kept (SNAP-Surface 488); label: 3' end held by stalled T7 RNA polymerase
pKd: −log10 of the molar value.
measured-attribute: pKd

>>> reported_measurement("target 1 insU 3' of 20,insA 3' of 5 (mixed) RNA 1: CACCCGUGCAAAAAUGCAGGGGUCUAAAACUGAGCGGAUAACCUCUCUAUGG RNA 2: GGGAAUGGAUCCACAUCUACGAAUUCGUACCAUUAGAGAGGUUAUCCGACUCACCGAGAUCGGAAGAGCACACGU")
7.91
>>> reported_measurement("target 2 MT 5'PFS CUU 3'PFS UUU (mixed) RNA 1: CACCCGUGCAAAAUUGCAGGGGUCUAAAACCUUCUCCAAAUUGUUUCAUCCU RNA 2: GGGAAUGGAUCCACAUCUACGAAUUCCUUAGGAUGAAACAAUUUGGAGAAGUUUAGAUCGGAAGAGCACACGU")
8.08
>>> reported_measurement("target 3 insC 3' of 8,insA 3' of 8 (mixed) RNA 1: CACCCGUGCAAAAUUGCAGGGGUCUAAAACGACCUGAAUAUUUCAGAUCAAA RNA 2: GGGAAUGGAUCCACAUCUACGAAUUCGUUUUUGAUCUGAAAUAUCAUCAGGUCUGCAGAUCGGAAGAGCACACGU")
7.12
>>> reported_measurement("target 1 insU 3' of 14,insG 3' of 14 (mixed) RNA 1: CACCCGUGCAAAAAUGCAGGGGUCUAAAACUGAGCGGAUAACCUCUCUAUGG RNA 2: GGGAAUGGAUCCACAUCUACGAAUUCGUACCAUAGAGAUGGGUUAUCCGCUCACCGAGAUCGGAAGAGCACACGU")
7.36

These entries and their values trace back to paper PMC10786891.
